Reported ID50 values for a set of compounds
molecular target: Beta-lactamase (Staphylococcus aureus) (UniProt P00807); assay: Inhibitory activity against Staphylococcus aureus penicillinase
Sequence (P00807 whole entry): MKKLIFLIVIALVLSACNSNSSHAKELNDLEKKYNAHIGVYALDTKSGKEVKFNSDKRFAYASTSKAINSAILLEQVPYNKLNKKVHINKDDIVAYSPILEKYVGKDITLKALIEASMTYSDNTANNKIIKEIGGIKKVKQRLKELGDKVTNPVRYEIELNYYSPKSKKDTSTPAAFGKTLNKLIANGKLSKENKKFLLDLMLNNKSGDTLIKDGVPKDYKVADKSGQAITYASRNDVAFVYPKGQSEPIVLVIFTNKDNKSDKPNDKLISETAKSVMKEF

>  <COMPOUND>
O=C(O)CCNP(=O)(O)CNC(=O)OCc1ccccc1

>  <ID50>
> 25 µM

$$$$
>  <COMPOUND>
COP(=O)(CNC(=O)OCc1ccccc1)N1CCC[C@@H]1C(=O)O (stereo partly specified)

>  <ID50>
> 100 µM

$$$$
>  <COMPOUND>
COP(=O)(CNC(=O)OCc1ccccc1)N1CSC(C)(C)[C@@H]1C(=O)O (stereo partly specified)

>  <ID50>
> 100 µM

$$$$
>  <COMPOUND>
COP(=O)(CNC(=O)OCc1ccccc1)N1CCC[C@H]1C(=O)O (stereo partly specified)

>  <ID50>
> 100 µM

$$$$
>  <COMPOUND>
O=C(NCP(=O)(O)N[C@H](Cc1ccccc1)C(=O)O)OCc1ccccc1

>  <ID50>
> 100 µM

$$$$
>  <COMPOUND>
O=C(O)CNCP(=O)(O)CNC(=O)OCc1ccccc1

>  <ID50>
> 100 µM

$$$$
>  <COMPOUND>
O=C(NCP(=O)(O)N[C@@H](Cc1ccccc1)C(=O)O)OCc1ccccc1

>  <ID50>
> 33 µM

$$$$
>  <COMPOUND>
O=C(O)CNP(=O)(O)CNC(=O)OCc1ccccc1

>  <ID50>
> 100 µg/mL

$$$$
>  <COMPOUND>
O=C(O)CC(NP(=O)(O)CNC(=O)OCc1ccccc1)c1ccccc1 (stereo unspecified)

>  <ID50>
> 35 µM

$$$$
>  <COMPOUND>
O=C(NCP(=O)(O)N[C@@H](C(=O)O)c1ccccc1)OCc1ccccc1

>  <ID50>
> 100 µM

$$$$
>  <COMPOUND>
O=C(O)[C@H]1/C(=C/CO)O[C@@H]2CC(=O)N21

>  <ID50>
0.38 µM

$$$$

Each recorded value in this set is attributed to ChEMBL document CHEMBL1127929.
